Target: MmΔIBBIMPα (Mus musculus)
Construct: GST; made in house
Test: AlphaScreen inhibition of MmΔIBBIMPα binding to T-ag-NLS-GFP
Conditions: single experiment of a series of 3; read-out: IC50, MmΔIBBIMPα:T-ag-NLS-GFP (Figure 3)
propertyMeasured: IC50 (nM)
Kindly provide the numeric value in nM only, without the unit symbol.

Requested read-out: IC50. Entry: O=C1Nc2ccc(I)cc2C1=Cc1cc(Br)c(O)c(Br)c1 2200

---

Target: TgIMPα (Toxoplasma gondii)
Assay: AlphaScreen inhibition of TgIMPα binding to T-ag-NLS-GFP
Conditions: single experiment of a series of 3; read-out: IC50, TgIMPα:T-ag-NLS-GFP (Figure 3)
propertyMeasured: IC50 (µM)
Please give a number only; it is taken to be in µM.

Any idea what its IC50 is? The molecule is O=C1Nc2ccc(I)cc2C1=Cc1cc(Br)c(O)c(Br)c1 5.4

---

Molecular target: PfIMPα (Plasmodium falciparum, UniProt Q8IAW0)
Assay: AlphaScreen inhibition of PfIMPα binding to TGS1-NLS-GFP
Settings: AlphaScreen; IMPα 5 nM, NLS 30 nM; pooled mean ± SEM (n = 3); read-out: IC50, inhibition of PfIMPα:TGS1 NLS binding
propertyMeasured: pIC50
Just so you know, pIC50 here is -log10 of the concentration in molar units; reply with that number alone.

# lookup: pIC50 of O=C1Nc2ccc(I)cc2C1=Cc1cc(Br)c(O)c(Br)c1 5.19

---

Target: TgIMPα:MmIMPβ1 (Toxoplasma gondii, UniProt A0A125YID0)
Experiment: AlphaScreen inhibition of TgIMPα binding to MmIMPβ1
Settings: single experiment of a series of three; read-out: IC50, TgIMPα:MmIMPβ1 (Figure 4)
propertyMeasured: pIC50
The quantity pIC50 is defined as the negative base-10 logarithm of the molar concentration.

Give recorded pIC50 with TgIMPα:MmIMPβ1 (Toxoplasma gondii, UniProt A0A125YID0) for the following compound: O=C1Nc2ccc(I)cc2C1=Cc1cc(Br)c(O)c(Br)c1 [GW5074] 4.89

---

Target: TgIMPα (Toxoplasma gondii, UniProt A0A125YID0)
Assay: AlphaScreen inhibition of TgIMPα binding to T-ag-NLS-GFP
Conditions: AlphaScreen; IMPα 5 nM, NLS 30 nM; pooled mean ± SEM (n = 3); read-out: IC50, inhibition of TgIMPα:SV40 T-ag NLS binding
propertyMeasured: IC50 (µM)
Entry rule: numbers only, all in µM.

TgIMPα (Toxoplasma gondii, UniProt A0A125YID0) / IC50 / O=C1Nc2ccc(I)cc2C1=Cc1cc(Br)c(O)c(Br)c1 : value? 7.7

---

Target: TgIMPα:MmIMPβ1 (Toxoplasma gondii)
Assay: AlphaScreen inhibition of TgIMPα binding to MmIMPβ1
Settings: AlphaScreen; IMPβ 30 nM, IMPα 30 nM; pooled mean ± SEM (n = 3); read-out: IC50, inhibition of TgIMPα:MmIMPβ1 binding
propertyMeasured: pIC50
Recall that pIC50 is obtained by taking minus log10 of the concentration measured in molar.

What reported pIC50 corresponds to O=C1Nc2ccc(I)cc2C1=Cc1cc(Br)c(O)c(Br)c1 on TgIMPα:MmIMPβ1 (Toxoplasma gondii)? 4.96

---

Molecular target: PfIMPα (Plasmodium falciparum, UniProt Q8IAW0)
Assay: AlphaScreen inhibition of PfIMPα binding to TGS1-NLS-GFP
Conditions: single experiment of a series of 3; read-out: IC50, PfIMPα:TGS1-NLS-GFP (Figure 3)
propertyMeasured: IC50 (µM)
Report the value in µM with no unit label.

If you can, please state the reported IC50 value of O=C1Nc2ccc(I)cc2C1=Cc1cc(Br)c(O)c(Br)c1 [GW5074] . 6

---

Biological target: MmΔIBBIMPα (Mus musculus)
Construct: GST; made in house
Assay: AlphaScreen inhibition of MmΔIBBIMPα binding to T-ag-NLS-GFP
Settings: AlphaScreen; IMPα 5 nM, NLS 30 nM; pooled mean ± SEM (n = 3); read-out: IC50, inhibition of ΔIBBmIMPα:SV40 T-ag NLS binding
propertyMeasured: pIC50
In textbook form, pIC50 equals minus log to base ten of the concentration in mol/L.

Recorded pIC50 of O=C1Nc2ccc(I)cc2C1=Cc1cc(Br)c(O)c(Br)c1 [GW5074] , please. 5.31

---

Target: PfIMPα:MmIMPβ1 (Plasmodium falciparum)
Test: AlphaScreen inhibition of PfIMPα binding to MmIMPβ1
Settings: single experiment of a series of three; read-out: IC50, PfIMPα:MmIMPβ1 (Figure 4)
Text: As indicated, both ivermectin and GW5074 have been previously shown to inhibit interaction between mammalian IMPα and IMPβ1 [24, 32]. We tested their activity towards apicomplexan IMPα (Figure 4; Table 4). As previously observed, binding of MmIMPα:MmIMPβ1 was inhibited strongly by both agents, with IC50 values of c. […]
propertyMeasured: IC50 (µM)
Just the number please, in µM, no unit attached.

What IC50 value was documented for this compound, O=C1Nc2ccc(I)cc2C1=Cc1cc(Br)c(O)c(Br)c1 ? 39

---

Biological target: MmIMPα:MmIMPβ1 (Mus musculus)
Construct: His; made in house
Experiment: AlphaScreen inhibition of MmIMPα binding to MmIMPβ1
Details: single experiment of a series of three; read-out: IC50, MmIMPα:MmIMPβ1 (Figure 4)
propertyMeasured: pIC50
Lab note: report pIC50 as minus log10 of the concentration in molar units, number only.

Using the record for O=C1Nc2ccc(I)cc2C1=Cc1cc(Br)c(O)c(Br)c1 [GW5074] , report its pIC50. 4.64
